All values here come from patent EP4671273A1.

target: T1, cynomolgus PD-1 (#PD1-C52H5, AcroBiosystems) (cynomolgus monkey, UniProt B0LAJ3 25-170); test: SPR, PD-1 on captured IgG1
T1 construct: bought; also called cynomolgus monkey PD-1; not shown: the vendor's tag on the recombinant protein (AcroBiosystems #PD1-C52H5)
T1 sequence (B0LAJ3 entry or part of it limits assumed, form in doubt): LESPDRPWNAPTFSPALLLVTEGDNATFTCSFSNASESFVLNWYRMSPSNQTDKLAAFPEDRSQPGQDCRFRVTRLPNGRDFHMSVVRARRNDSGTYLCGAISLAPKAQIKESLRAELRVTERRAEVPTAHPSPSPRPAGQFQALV
The threshold is inclusive: koff of exactly 0.002 s⁻¹ counts as yes; values below receive no.

The examples below pair each entry with its known result.
Binder	Label Value
GZZ692 (antibody, human IgG1, V domains shown, human IgG1) VH: EVQLLESGGGLVQPGGSLRLSCAASGFTFSINAMTWVRQAPGKGLEWVSTISGSGFSTYYADSLKGRFTISRDNSKNTLYLQMNSLRAEDTAVYYCAKEVYGDYWGQGTLVTVSS VL: RSVLTQPPSASGTPGQRVSISCSGASSNIGSQSVFWYQQLPGTAPKLLGYSNNQRPSGVPDRFSGSKSGTSASLAISGLRSEDEADYYCAAWDDSLSIWVFGGGTKLTVL	no
FHX509 (antibody, human IgG1, V domains shown, human IgG1) VH: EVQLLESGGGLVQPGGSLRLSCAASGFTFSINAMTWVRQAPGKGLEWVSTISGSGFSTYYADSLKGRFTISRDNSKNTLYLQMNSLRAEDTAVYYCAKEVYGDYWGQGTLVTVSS VL: RSVLTQPPSASGTPGQRVSISCSGASSNIGSQSVFWYQQLPGTAPKLLIYSNNQRPSGVPDRFSGSKSGTSASLAISGLRSEDEADYYCAAWDDSLSAWVFGGGTKLTVL	no
GDY271 (antibody, human IgG1, V domains shown, human IgG1) VH: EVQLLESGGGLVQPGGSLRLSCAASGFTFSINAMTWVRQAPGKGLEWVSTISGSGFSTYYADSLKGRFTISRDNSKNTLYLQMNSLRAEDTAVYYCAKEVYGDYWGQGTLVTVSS VL: RSVLTQPPSASGTPGQRVSISCSGASSNIGSQSVYWYQQLPGTAPKLLIYSNNQRPSGVPDRFSGSKSGTSASLAISGLRSEDEADYYCAAWDDSLSIWVFGGGTKLTVL	yes
SSR010 (antibody, human IgG1, V domains shown, human IgG1) VH: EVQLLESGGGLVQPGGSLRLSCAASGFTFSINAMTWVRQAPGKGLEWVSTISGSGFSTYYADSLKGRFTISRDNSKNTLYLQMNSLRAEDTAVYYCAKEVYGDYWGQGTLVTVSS VL: RSVLTQPPSASGTPGQRVSISCSGASSNVGSQSVFWYQQLPGTAPKLLIYSNNQRPSGVPDRFSGSKSGTSASLAISGLRSEDEADYYCAAWDDSLSIWVFGGGTKLTVL	no
21A08Ap1 (antibody, human IgG1, V domains shown, human IgG1; also called anti-PD-1 antibody clone 21A08Ap1) VH: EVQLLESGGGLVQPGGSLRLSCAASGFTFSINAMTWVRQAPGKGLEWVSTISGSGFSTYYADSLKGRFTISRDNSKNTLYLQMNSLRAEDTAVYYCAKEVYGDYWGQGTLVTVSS VL: RSVLTQPPSASGTPGQRVSISCSGASSNIGSQSVFWYQQLPGTAPKLLIYSNNQRPSGVPDRFSGSKSGTSASLAISGLRSEDEADYYCAAWDDSLSIWVFGGGTKLTVL	no

Turning to the following binder.
INPUT: Could you verify whether the entry JOH712 (antibody, human IgG1, V domains shown, human IgG1) VH: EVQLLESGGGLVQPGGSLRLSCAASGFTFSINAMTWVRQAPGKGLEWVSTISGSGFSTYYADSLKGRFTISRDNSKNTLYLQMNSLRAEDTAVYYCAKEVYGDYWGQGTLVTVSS VL: RSVLTQPPSASGTPGQRVSISCSGASSNIGSQSVFWYQQHPGTAPKLLIYSNNQRPSGVPDRFSGSKSGTSASLAISGLRSEDEADYYCAAWDDSLSIWVFGGGTKLTVL shows koff of no less than 0.002 s⁻¹?
OUTPUT: no
